- measured-on: Glyceraldehyde-3-phosphate dehydrogenase, glycosomal (Trypanosoma cruzi)
- Sequence (P22513 whole entry): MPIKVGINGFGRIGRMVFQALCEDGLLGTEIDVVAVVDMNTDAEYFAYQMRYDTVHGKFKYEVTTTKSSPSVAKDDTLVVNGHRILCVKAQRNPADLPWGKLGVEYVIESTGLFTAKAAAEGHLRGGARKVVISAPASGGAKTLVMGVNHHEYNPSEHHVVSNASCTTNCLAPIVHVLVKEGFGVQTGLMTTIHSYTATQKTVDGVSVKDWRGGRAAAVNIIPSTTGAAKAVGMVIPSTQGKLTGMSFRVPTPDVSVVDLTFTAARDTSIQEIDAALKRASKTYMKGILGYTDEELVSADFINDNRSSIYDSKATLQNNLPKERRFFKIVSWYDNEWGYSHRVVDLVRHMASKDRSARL
- experimental-details: Inhibition of Trypanosoma cruzi recombinant glycosomal GAPDH expressed in Escherichia coli by spectrophotometry
measured-metric: IC50 (µM)

compound=CCCCCC/C=C/CCCCCCCc1cccc(O)c1C(=O)O value_observed=161
compound=O=c1c2cc(O)c(O)cc2oc2cc(O)c([C@@H]3O[C@H](CO)[C@@H](O)[C@H](O)[C@H]3O)c(O)c12 value_observed=149
compound="C=CC(C)(C)c1cc2cc3c(cc2oc1=O)O[C@H](C(C)(C)O)C3 [CHALEPIN]" value_observed=64

(A) O=C(/C=C/c1ccc(O)cc1)OC[C@H]1O[C@@H](Oc2c(-c3ccc(O)cc3)oc3cc(O)cc(O)c3c2=O)[C@H](O)[C@@H](O)[C@@H]1O [TILIROSIDE]
(B) COc1cccc(C(=O)N[C@@H]2[C@H](O)[C@@H](CO)O[C@H]2n2cnc3c(NCc4cccc5ccccc45)ncnc32)c1
(C) O=c1c(O[C@@H]2OC[C@H](O)[C@H](O)[C@H]2O)c(-c2ccc(O)c(O)c2)oc2cc(O)cc(O)c12
(D) COc1cccc(C(=O)N[C@@H]2[C@H](O)[C@@H](COP(=O)(O)O)O[C@H]2n2cnc3c(NCc4cccc5ccccc45)ncnc32)c1
Parameters: sort_field (IC50), sort_dir (desc). # respond with the labels, arranged in the requested order
C, A, B, D
(C: 140 µM, A: 46 µM, B: 12 µM, D: 5 µM)
